tested on: TDF; assay: cell number relative to DMSO (% of DMSO); higher = more cells (less growth inhibition / toxicity); conditions: concentration: 10 µM; 24 h;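 further: TDF denotes transformed human dermal fibroblasts of mesenchymal origin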
Please respond with reported cell number for every item in the list.

molecule: CCOP(=O)(OCC)C(C)NC(=O)N(CCCl)N=O (centres undefined)
observed property: cell number
result: 80.1

Look at each molecule and report its cell number.
1. COc1cc2c(cc1OC)C(C)NCC2 (centres undefined) [Salsolodine]
2. COc1ccc(C(=O)OC2CCC3(C)C4CCC5C6(O)CC(O)C7(O)C(CN8CC(C)CCC8C7(C)O)C6(O)CC53OC24O)cc1OC (centres undefined) [Veratridine]
3. CCC(C(=O)O)C1CCC(C)C(C(C)C(O)C(C)C(=O)C(CC)C2OC3(C=CC(O)C4(CCC(C)(C5CCC(O)(CC)C(C)O5)O4)O3)C(C)CC2C)O1 (centres undefined) [Salinomycin]

Reply |
[97.2, 97.2, 87.7]

###

Please respond with reported cell number for every item in the list.
tested on: TDF; experiment: cell number relative to DMSO (% of DMSO); higher = more cells (less growth inhibition / toxicity); conditions: concentration: 10 µM; 24 h;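 further: TDF denotes transformed human dermal fibroblasts of mesenchymal origin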
Answers are plain numbers.

Recorded cell number, per entry:
molecule: CN1C2CCC1CC(OC(c1ccccc1)c1ccccc1N)C2 (centres undefined)
target system: TDF;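 further: TDF denotes transformed human dermal fibroblasts of mesenchymal origin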
cell number: 97.9
--
molecule: Cl.O=C(N[C@H]1CN2CCC1CC2)c1c[nH]c2ccsc2c1=O
target system: TDF;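 further: TDF denotes transformed human dermal fibroblasts of mesenchymal origin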
cell number: 94.7
--
molecule: Cc1o[nH]c(=O)c1CC(N)C(=O)O (racemic)
target system: TDF;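 further: TDF denotes transformed human dermal fibroblasts of mesenchymal origin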
cell number: 101
--
molecule: CCC1(C2=NCCN2)Cc2ccccc2O1.Cl (centres undefined) [Efaroxan hydrochloride]
target system: TDF;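 further: TDF denotes transformed human dermal fibroblasts of mesenchymal origin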
cell number: 105
--
molecule: COc1ccc2c(c[n+](C)c3c4cc5c(cc4ccc23)OCO5)c1OC.[Cl-] [Chelerythrine Chloride]
target system: TDF;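 further: TDF denotes transformed human dermal fibroblasts of mesenchymal origin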
cell number: 98.2

Look at each molecule and report its cell number.
1. CN1C2CCC1CC(O)C2 (centres undefined)
2. CN(C)C1C(=O)C(C(N)=O)=C(O)C2(O)C(=O)C3=C(O)c4c(O)cccc4C(C)(O)C3CC12 (centres undefined)
3. CC(C)(C)NCC(O)c1ccccc1Cl.Cl (centres undefined) [Tulobuterol hydrochloride]
4. Cl.O=C1CCC2(O)C3Cc4ccc(O)c5c4C2(CCN3CC2CC2)C1O5 (centres undefined) [Naltrexone.HCl]

Reply |
1. 104
2. 109
3. 110
4. 100

Look at each molecule and report its cell number.
1. Nc1ccncc1
2. CCCN1CCCC2Cc3[nH]ncc3CC21 (racemic)

Reply |
[103, 96.7]

###

Please respond with reported cell number for every item in the list.
tested on: TDF; test: cell number relative to DMSO (% of DMSO); higher = more cells (less growth inhibition / toxicity); conditions: concentration: 10 µM; 24 h;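 further: TDF denotes transformed human dermal fibroblasts of mesenchymal origin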
Counter-ions that a name gives are not always drawn.
One number for each entry.

Recorded cell number, per entry:
compound: CC(N)Cc1cnc[nH]1.Cl.Cl (stereo not drawn) [Histamine, R(-)-alpha-methyl-, dihydrochloride]
cell number: 102

compound: CC(Cc1ccc(OCC(=O)[O-])cc1)NCC(O)c1cccc(Cl)c1.[Na+] (configuration not stated)
cell number: 110

compound: CCCCCC=CCC=CCC=CCC=CCCCC(=O)NCC(=O)O [N-arachidonylglycine]
cell number: 99.4

compound: CCCCCCC(=O)CCCCCCC=CCC(O)C(O)C(N)(CO)C(=O)O (configuration not stated) [Myriocin]
cell number: 92.4

compound: COc1cc(C2c3cc4c(cc3C(O)C3COC(=O)C23)OCO4)cc(OC)c1O (configuration not stated) [4'-Demethylpipodophyllotoxin]
cell number: 12.7

Look at each compound and report its cell number.
1. COc1cccc(C2(O)CCCCC2CN(C)C)c1 (configuration not stated) [Tramadol]
2. CC(C)(C)NCC(O)c1cc(Cl)c(N)c(Cl)c1 (configuration not stated) [Clenbuterol]
3. O=C1Nc2ccc3ncsc3c2C1=Cc1cnc[nH]1 [PKR Inhibitor]

Reply |
1. 97.7
2. 103
3. 17

Look at each compound and report its cell number.
1. COc1ccc2c(c1)N1C(C=C(C)C)OOC(C)(C)CC3C1C2C(O)C1(O)C(=O)N2CCCC2C(=O)N31 (configuration not stated) [Verruculogen]
2. C=CC1CN2CCC1CC2C(O)c1ccnc2ccccc12 (single isomer, unassigned; (+)) [(+)-Cinchonine]
3. CC(C)N(CCC(C(N)=O)(c1ccccc1)c1ccccn1)C(C)C (configuration not stated) [Disopyramide]
4. CC(C)N(CCC(C(N)=O)(c1ccccc1)c1ccccn1)C(C)C.O=P(O)(O)O (configuration not stated) [Disopyramide phosphate]

Reply |
106
106
106
105

Look at each compound and report its cell number.
1. NC(Cc1ccc(N(CCCl)CCCl)cc1)C(=O)O (configuration not stated) [Melphalan]
2. S=C(NC1CCCCC1)N1CCC(c2cnc[nH]2)CC1 [Thioperamide maleate]
3. COC(=O)CC(O)(CCC(C)(C)O)C(=O)OC1C(OC)=CC23CCCN2CCc2cc4c(cc2C13)OCO4 (configuration not stated) [Harringtonine]
4. CC(C)(C)c1o[nH]c(=O)c1CC(N)C(=O)O (configuration not stated)
5. COCC1OC(=O)c2coc3c2C1(C)C1=C(C3=O)C2CCC(=O)C2(C)CC1OC(C)=O (configuration not stated) [Wortmannin]

Reply |
1. 69.2
2. 100
3. 29.9
4. 104
5. 91.8
